The following binders are listed with their measured Kd values.
system: T1, recombinant cynomolgus monkey PD-L1 with a C-terminal myc-myc-hexahistidine tag (cynomolgus monkey (Macaca fascicularis))
T1 construct: also called MfPD-L1-MMH; MfPD-L1-MMH Monomer
T1 sequence (chain, as listed by the source limits assumed): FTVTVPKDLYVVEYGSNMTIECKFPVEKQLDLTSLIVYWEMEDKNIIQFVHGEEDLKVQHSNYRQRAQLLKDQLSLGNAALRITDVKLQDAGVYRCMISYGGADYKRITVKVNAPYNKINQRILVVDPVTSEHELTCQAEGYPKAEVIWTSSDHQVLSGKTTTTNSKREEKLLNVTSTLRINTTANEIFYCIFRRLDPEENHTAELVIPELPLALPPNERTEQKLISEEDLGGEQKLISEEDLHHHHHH
experiment notes: SPR (Biacore), mAb captured, 37C
State the answer as a number, implicitly in nM.

I would be grateful if you could share the reported Kd for H2aM8310N (antibody, mouse IgG2, V domains shown, also called H2M8310N) VH: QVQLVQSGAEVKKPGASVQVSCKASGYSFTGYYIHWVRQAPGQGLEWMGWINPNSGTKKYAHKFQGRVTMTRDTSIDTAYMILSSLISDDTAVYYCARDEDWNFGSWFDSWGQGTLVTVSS VL: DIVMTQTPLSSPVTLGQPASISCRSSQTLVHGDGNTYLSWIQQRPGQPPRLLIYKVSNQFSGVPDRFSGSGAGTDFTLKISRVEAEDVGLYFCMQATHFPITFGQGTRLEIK . 2.27

I would be grateful if you could share the reported Kd for H2aM8317N (antibody, mouse IgG2, V domains shown, also called H2M8317N) VH: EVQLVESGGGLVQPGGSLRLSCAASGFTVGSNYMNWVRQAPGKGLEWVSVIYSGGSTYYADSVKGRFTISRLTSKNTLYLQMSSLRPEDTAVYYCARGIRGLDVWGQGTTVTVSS VL: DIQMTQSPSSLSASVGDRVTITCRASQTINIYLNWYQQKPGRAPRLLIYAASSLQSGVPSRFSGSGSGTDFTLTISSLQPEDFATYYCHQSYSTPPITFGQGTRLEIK . 179

I would be grateful if you could share the reported Kd for H2aM8314N (antibody, mouse IgG2, V domains shown, also called H2M8314N) VH: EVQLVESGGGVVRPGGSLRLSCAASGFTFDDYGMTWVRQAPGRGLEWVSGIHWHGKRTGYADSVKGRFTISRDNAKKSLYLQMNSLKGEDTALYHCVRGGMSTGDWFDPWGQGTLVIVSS VL: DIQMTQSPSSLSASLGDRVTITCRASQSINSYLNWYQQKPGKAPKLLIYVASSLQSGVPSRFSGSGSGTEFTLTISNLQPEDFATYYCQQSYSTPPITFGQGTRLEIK . 0.142
